Please respond with reported pIC50 for every item in the list.
# MEASURED_TARGET: IDO1 (Homo sapiens)
# Sequence (P14902 whole entry): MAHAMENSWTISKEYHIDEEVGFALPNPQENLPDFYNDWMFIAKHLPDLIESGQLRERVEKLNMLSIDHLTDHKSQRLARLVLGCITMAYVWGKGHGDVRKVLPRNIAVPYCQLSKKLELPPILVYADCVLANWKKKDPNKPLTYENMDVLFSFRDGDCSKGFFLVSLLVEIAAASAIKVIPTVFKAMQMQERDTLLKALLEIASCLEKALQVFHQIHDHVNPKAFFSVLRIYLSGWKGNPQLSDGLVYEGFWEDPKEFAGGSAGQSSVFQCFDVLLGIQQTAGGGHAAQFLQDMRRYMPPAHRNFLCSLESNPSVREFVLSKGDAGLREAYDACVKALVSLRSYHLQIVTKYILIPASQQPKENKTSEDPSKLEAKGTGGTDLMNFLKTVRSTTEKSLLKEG
# ASSAY_OVERVIEW: IDO1 enzymatic assay
# Format: biochemical
# Design: His tag (N); made in house; host or cells: E. coli
# CONDITIONS_USED: read-out: Enzyme IC50 IDO1
Remember, pIC50 is on a log scale: it is -log10 of the molar concentration.

Record request: pIC50 value, item CC(C)c1ccc2cncn2c1[C@@H](O)[C@H]1CC[C@H](c2ccc(F)cc2)CC1 (single isomer, unassigned) [Example D166a]
7.59

# repeat for O[C@@H](c1c(C2CC2)ccc2cncn12)C1CCN(c2ccc(F)c3ncccc23)CC1 (single isomer, unassigned) [Example D175b]
6.13
